Would you mind telling me the reported binding signal of each entry?
study_system: HNF4alpha8 (COS-7 nuclear extract) (Homo sapiens, UniProt P41235-5 1-452)
Sequence: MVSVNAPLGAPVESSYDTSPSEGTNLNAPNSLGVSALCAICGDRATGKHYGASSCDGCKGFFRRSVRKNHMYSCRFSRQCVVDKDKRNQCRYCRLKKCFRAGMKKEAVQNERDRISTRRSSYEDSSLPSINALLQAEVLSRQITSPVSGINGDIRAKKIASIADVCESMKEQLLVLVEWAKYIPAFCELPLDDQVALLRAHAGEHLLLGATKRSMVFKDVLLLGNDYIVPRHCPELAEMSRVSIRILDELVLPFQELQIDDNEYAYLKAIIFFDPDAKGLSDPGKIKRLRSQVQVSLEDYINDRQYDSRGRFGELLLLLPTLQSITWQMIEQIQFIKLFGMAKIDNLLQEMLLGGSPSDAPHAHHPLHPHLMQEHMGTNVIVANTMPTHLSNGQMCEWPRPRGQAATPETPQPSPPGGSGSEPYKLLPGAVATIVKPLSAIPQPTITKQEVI
method_summary: protein-binding microarray; COS-7 nuclear extract on double-stranded Agilent 4x180k PBM; binding buffer, salt, pH and temperature not given in the material; high values mean tight binding
condition_description: chain copies: 2; label: 3' end of strand 1 on the slide; dsDNA, one strand shown
The full ranking holds about 18,000 sequences; the median of “log2 normalized intensity” is about 0.36, and the highest 2% start at about 7.3. What follows is part of a selection rich in the highest values, with near analogues and random picks from the rest.
Provide a numeric answer, followed by its unit.

Inquiry: For the sequence "CTGGGGCCACCCTCCTCTCTGGGTCAAAGGGCCTAGGGAGATTAGAGTATCGGTCGA" , give its measured binding signal value.
Reply text: 5.36 log2 normalized intensity

Inquiry: // Input: "GCAGTTTTTGATCAAGGAGGACTTTGGAATGCCTAGGGAGATTAGAGTATCGGTCGA" . Output its binding signal only.
Reply text: 7.54 log2 normalized intensity

Inquiry: Retrieve binding signal measured for "TGGGGACCTTTGGGCTCTGACCCGAAGGGTGCCTAGGGAGATTAGAGTATCGGTCGA" and print it.
Reply text: 2.6 log2 normalized intensity

Inquiry: Give the reported binding signal for this sequence. "CCTCCTCTCTGGGTCAAAGGTCATCGCACCGCCTAGGGAGATTAGAGTATCGGTCGA"
Reply text: 8.5 log2 normalized intensity

Inquiry: Provide one value: measured binding signal of "GAAACATCCACATGTGGGTCCAAAGAACATGCCTAGGGAGATTAGAGTATCGGTCGA"
Reply text: 3.82 log2 normalized intensity

Inquiry: Hello, please tell me recorded binding signal for this one: "AAAGGTCATCGCACCGGCAGGGGAGAACTTGCCTAGGGAGATTAGAGTATCGGTCGA"
Reply text: 1.24 log2 normalized intensity

Inquiry: Provide only the value of recorded binding signal for "CAGAGCTGTCGTCCCAGGGCAAAGGTCACCGCCTAGGGAGATTAGAGTATCGGTCGA"
Reply text: 8.47 log2 normalized intensity

Inquiry: Let me know recorded binding signal for "TCAGCCTTAACTCAAAAGGCCAAAGTCCAAGCCTAGGGAGATTAGAGTATCGGTCGA" , thanks.
Reply text: 9.11 log2 normalized intensity

Inquiry: Determine from records and report binding signal for "GACTTTGGTTGGATTTCTTGGCTTCTCTTGGCCTAGGGAGATTAGAGTATCGGTCGA"
Reply text: 0.989 log2 normalized intensity

Inquiry: Assign binding signal to the following record: "CACTGGCTCTGGGGTCAAAGTCCCCTGAGCGCCTAGGGAGATTAGAGTATCGGTCGA"
Reply text: 7.66 log2 normalized intensity

Inquiry: Specify reported binding signal for the sequence shown: "CGCCCCCAACGGGCCACGCCCTGCACCCTAGCCTAGGGAGATTAGAGTATCGGTCGA"
Reply text: 4.07 log2 normalized intensity

Inquiry: Indicate the recorded binding signal value for this sequence: "TTGCCAGTTCCCATTTGCGCTGGTTTTATGGCCTAGGGAGATTAGAGTATCGGTCGA"
Reply text: 1.65 log2 normalized intensity

Inquiry: Please list binding signal recorded for the sequence "TGATGACTTTTGACCCCAGGGGAAACTCCAGCCTAGGGAGATTAGAGTATCGGTCGA"
Reply text: 5.06 log2 normalized intensity

Inquiry: State, in one line, measured binding signal of "TACATTTTGCTCTGTTGTGTCAAAGGTCACGCCTAGGGAGATTAGAGTATCGGTCGA"
Reply text: 7 log2 normalized intensity

Inquiry: Fill in reported binding signal for this entry: "TAGTTAGAGTCACTGATAAGTCTGCTTGCCGCCTAGGGAGATTAGAGTATCGGTCGA"
Reply text: -0.858 log2 normalized intensity

Inquiry: Provide measured binding signal value, entry: "CCTGCCTCTCCTCTGAGCTTCATCCTGACCGCCTAGGGAGATTAGAGTATCGGTCGA"
Reply text: 1.7 log2 normalized intensity

Inquiry: Report binding signal for "CTGGTGTAGTGGGGAGGGCATGGACTTTGGGCCTAGGGAGATTAGAGTATCGGTCGA"
Reply text: 6.38 log2 normalized intensity

Inquiry: Please give measured binding signal of the following entry: "CCTGGTCAAAGTCAACTCCTCCAAGCCACCGCCTAGGGAGATTAGAGTATCGGTCGA"
Reply text: 0.614 log2 normalized intensity

Inquiry: Given "GAGGTGTCAGCCACCCCTCCTCCTGGGGGCGCCTAGGGAGATTAGAGTATCGGTCGA" , respond with its binding signal.
Reply text: 2.93 log2 normalized intensity

Inquiry: Return binding signal (reported value) for this sequence: "TGTCAGGAACAACTTCGGGAATCTGACCTTGCCTAGGGAGATTAGAGTATCGGTCGA"
Reply text: 4.3 log2 normalized intensity

Inquiry: Could you please provide reported binding signal for "CCTTTTTGGAATGTGTTTGCATGACTCATAGCCTAGGGAGATTAGAGTATCGGTCGA" ? Thanks!
Reply text: 1.5 log2 normalized intensity

Inquiry: Indicate the recorded binding signal value for this sequence: "CTCTCCCTCCTCTCTGAGCAGTCAAACTGGGCCTAGGGAGATTAGAGTATCGGTCGA"
Reply text: 1.89 log2 normalized intensity

Inquiry: Report binding signal for "GAACAGTCCTACAAATGATCAAAGGTTGGTGCCTAGGGAGATTAGAGTATCGGTCGA"
Reply text: 3.74 log2 normalized intensity

Inquiry: Output binding signal of "GTCCCAGGGCAAAGGTCACCAGCTAAGCTGGCCTAGGGAGATTAGAGTATCGGTCGA"
Reply text: 6.21 log2 normalized intensity

Inquiry: Fill in reported binding signal for this entry: "CCTGCAAGGACAAAGGTCATGTTTTCAAACGCCTAGGGAGATTAGAGTATCGGTCGA"
Reply text: 6.34 log2 normalized intensity

Inquiry: Hello, please tell me recorded binding signal for this one: "AATTCTTAAGCCAAAGTCCAAGTTGGTGAGGCCTAGGGAGATTAGAGTATCGGTCGA"
Reply text: 3.81 log2 normalized intensity

Inquiry: Entry "CTTCCCAGCTGCTGGTCAAAGGGCATTACTGCCTAGGGAGATTAGAGTATCGGTCGA" needs its binding signal filled in; supply it.
Reply text: 5.83 log2 normalized intensity

Inquiry: Indicate the recorded binding signal value for this sequence: "AAAGTTCTGCTGAGTATCCAAAGGTCAGTGGCCTAGGGAGATTAGAGTATCGGTCGA"
Reply text: 6.24 log2 normalized intensity

Inquiry: Return reported binding signal. Input sequence: "AAGTCCAAAGTTCTTGGCCAGGCATGGAGAGCCTAGGGAGATTAGAGTATCGGTCGA"
Reply text: 2.75 log2 normalized intensity

Inquiry: Please report the measured binding signal for "AGTATTACCATGTCCTGTGATTAAGGTCAAGCCTAGGGAGATTAGAGTATCGGTCGA"
Reply text: 2.96 log2 normalized intensity

Inquiry: # return recorded binding signal for entry "TCCACAGTCAAGGCCAAAGGTTAAAAATAAGCCTAGGGAGATTAGAGTATCGGTCGA"
Reply text: 4.8 log2 normalized intensity

Inquiry: Please list binding signal recorded for the sequence "AGGTCGCAAGCACTGGCTCTGGGGTCAAAGGCCTAGGGAGATTAGAGTATCGGTCGA"
Reply text: 4.08 log2 normalized intensity

Inquiry: Supply binding signal value. Item: "GAATGACTTTGGGGAAATGACCTTTGTCCAGCCTAGGGAGATTAGAGTATCGGTCGA"
Reply text: 9.48 log2 normalized intensity

Inquiry: Query binding signal for "AGATACTGAATCTCCCAGTGCTTTGATCTTGCCTAGGGAGATTAGAGTATCGGTCGA"
Reply text: 1.39 log2 normalized intensity

Inquiry: Specify reported binding signal for the sequence shown: "CCCCCGCAACTATTTATGAGTCTTGGGAATGCCTAGGGAGATTAGAGTATCGGTCGA"
Reply text: 0.709 log2 normalized intensity

Inquiry: Answer with the recorded binding signal for the sequence listed here: "GCCACCCTCCTCTCTGGGTCAAAGGTCATCGCCTAGGGAGATTAGAGTATCGGTCGA"
Reply text: 10.2 log2 normalized intensity

Inquiry: Give the value of binding signal reported for the following: "CCATGCTCTTTGGCCTGGCATTTGAGACTAGCCTAGGGAGATTAGAGTATCGGTCGA"
Reply text: 0.329 log2 normalized intensity
